B1: library; a variant is named by its letters at N, in order (parent)
chain: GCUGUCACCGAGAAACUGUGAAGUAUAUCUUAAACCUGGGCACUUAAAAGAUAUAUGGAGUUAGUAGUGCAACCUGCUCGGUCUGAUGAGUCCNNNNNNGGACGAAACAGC

# Variants of: B1
# protocol.summary: normalized RNA/DNA level without ligand (relative to sTRSVctl = 100) (log10 (% of sTRSVctl)); HEK293T; ligand: cyclic di-GMP (c-di-GMP-II aptamer); higher = less ribozyme self-cleavage, higher mRNA level
# run.parameters: reporter: mCherry (pCS4076), ligand present: no
normalized RNA/DNA level without ligand (log10) for assorted variants
Give the figure by itself; no unit, no explanation.

In the examples that follow, each entry is paired with its recorded normalized RNA/DNA level without ligand (log10).
>>> observed_measurement("GCGGCU")
1.75
>>> observed_measurement("GUACAU")
1.61
>>> observed_measurement("UUCUAC")
1.75
>>> observed_measurement("UUACUA")
1.64

So what's the measured normalized RNA/DNA level without ligand (log10) for this one? CAUAGC
1.73

Any idea what normalized RNA/DNA level without ligand (log10) was measured for UAGUAG ?
1.7

For the variant shown here, GCUAUA , give the reported normalized RNA/DNA level without ligand (log10).
1.55

Which measured normalized RNA/DNA level without ligand (log10) value corresponds to GCUGAG ?
1.5

State the recorded normalized RNA/DNA level without ligand (log10) for this entry: CCCACU
1.62
